Average IL-1β listing for selected compounds.
# test.system: NLRP3 inflammasome (Mus musculus, UniProt Q8R4B8)
# Construct: endogenous in cells; host or cells: primary mouse bone marrow-derived dendritic cells (BMDCs), LPS-primed
# Sequence (Q8R4B8 whole entry): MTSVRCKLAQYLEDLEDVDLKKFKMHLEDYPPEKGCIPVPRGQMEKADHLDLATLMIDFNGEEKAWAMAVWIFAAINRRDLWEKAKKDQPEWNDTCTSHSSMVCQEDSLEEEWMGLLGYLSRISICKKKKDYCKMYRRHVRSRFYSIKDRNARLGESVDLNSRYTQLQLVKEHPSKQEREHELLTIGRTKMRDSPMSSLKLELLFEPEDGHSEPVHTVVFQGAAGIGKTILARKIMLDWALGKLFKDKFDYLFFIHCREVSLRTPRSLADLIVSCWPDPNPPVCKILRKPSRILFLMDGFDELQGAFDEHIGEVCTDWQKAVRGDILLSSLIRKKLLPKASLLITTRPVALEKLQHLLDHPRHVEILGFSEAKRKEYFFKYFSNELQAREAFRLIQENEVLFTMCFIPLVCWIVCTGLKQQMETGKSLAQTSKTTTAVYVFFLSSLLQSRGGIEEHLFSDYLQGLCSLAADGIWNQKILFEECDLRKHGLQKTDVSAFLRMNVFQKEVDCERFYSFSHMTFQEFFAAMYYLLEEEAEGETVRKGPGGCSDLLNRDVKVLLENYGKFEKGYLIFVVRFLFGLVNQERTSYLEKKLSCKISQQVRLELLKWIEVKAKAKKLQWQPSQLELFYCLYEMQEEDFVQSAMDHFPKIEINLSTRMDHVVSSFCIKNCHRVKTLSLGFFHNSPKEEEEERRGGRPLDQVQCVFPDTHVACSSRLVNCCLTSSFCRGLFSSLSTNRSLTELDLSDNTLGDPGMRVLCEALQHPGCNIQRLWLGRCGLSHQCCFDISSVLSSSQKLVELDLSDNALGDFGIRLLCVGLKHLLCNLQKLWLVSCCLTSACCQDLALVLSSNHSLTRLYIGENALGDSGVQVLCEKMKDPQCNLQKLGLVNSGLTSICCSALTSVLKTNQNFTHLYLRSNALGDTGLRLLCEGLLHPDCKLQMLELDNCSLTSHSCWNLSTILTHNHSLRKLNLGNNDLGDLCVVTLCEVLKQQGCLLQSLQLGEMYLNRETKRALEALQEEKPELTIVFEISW
# assay.info: IL-1β release from LPS-primed BMDCs (ELISA) as readout of NLRP3 inflammasome activation
# Assay type: cell-based
# assay.conditions: 75 μM; AH series table
Response body: numeric value in ng/mL, unit text excluded.

Record excerpt, results attached:
{"smiles.notation": "Cc1c(F)cccc1NC(=O)Nc1cccc(Cl)c1", "result.type": "Average IL-1β", "endpoint.value": 2.224}
{"smiles.notation": "S=C(Nc1ccccc1)Nc1ccc2ncccc2c1", "result.type": "Average IL-1β", "endpoint.value": 9.996}
{"smiles.notation": "O=C(Nc1cc(Cl)cc(Cl)c1)Nc1ccc([N+](=O)[O-])cc1Cl", "result.type": "Average IL-1β", "endpoint.value": 1.533}

Which Average IL-1β reading was recorded for the compound O=[N+]([O-])c1ccc(NC(=S)Nc2cccc(Cl)c2)c(Cl)c1 ?
0.187

====

# System: BMDCs
# assay.info: LDH release (lytic cell death, pyroptosis) from LPS-primed BMDCs
# Format: cell-based, mouse
# assay.conditions: LDH release; compound 50 μM; positive control nigericin 5 μM
result.type: Average (% positive control)
Report only the number, with the unit % positive control understood.

Would you kindly share the measured Average (% positive control) for O=C(Nc1ccccc1)Nc1cccc(NC(=O)c2ccoc2)c1 ?
9.387

Suppose we examine the compound Cc1ccc(NC(=O)Nc2ccccc2)cc1NC(=O)C(F)F ; what Average (% positive control) value has been reported?
24.685

Requested field: Average (% positive control). Item: O=C(Nc1cccc(S(=O)(=O)C2CCCC2)c1)N1CCCCC1c1nc(-c2ccccc2)no1 (stereo not shown)
13.410

Which Average (% positive control) is reported for this compound? COc1ccccc1NC(=O)NCc1nc(-c2ccc(C(F)(F)F)cc2)no1
68.766

====

Average IL-1β values for the compounds below.
# test.system: NLRP3 inflammasome (Mus musculus, UniProt Q8R4B8)
# Construct: endogenous in cells; host or cells: primary mouse bone marrow-derived dendritic cells (BMDCs), LPS-primed
# assay.info: IL-1β release from LPS-primed BMDCs (ELISA) as readout of NLRP3 inflammasome activation
# Format: cell-based
# assay.conditions: 25 μM; EN11 series table
Output spec: scalar in ng/mL, unitless text.

{"compound": "O=C(Nc1ccccc1)Nc1ccc2ncccc2c1 [EN22, 1-phenyl-3-(quinolin-6-yl)urea]", "scale.unit": "ng/mL", "Average IL-1β": 1.474}
{"compound": "O=C(Nc1ccc2ncccc2c1)NC1CCCCC1 [EN11-02, 1-cyclohexyl-3-(quin-olin-6-yl)urea]", "scale.unit": "ng/mL", "Average IL-1β": 0.015}
{"compound": "O=C(NCc1ccccc1)NCc1ccc2ncccc2c1 [EN11-11, 3-benzyl-1-[(quinolin-6-yl)methyl]urea]", "scale.unit": "ng/mL", "Average IL-1β": 0.000}

Would you kindly share the measured Average IL-1β for O=C(NCc1ccccc1)Nc1ccc2ncccc2c1 [EN11-16, 1-benzyl-3-(quinolin-6-yl)urea] ?
0.008

What does the record list as Average IL-1β for O=C(NCCc1ccccc1)Nc1ccc2ncccc2c1 [EN11-07, 1-(2-phenylethyl)-3-(quinolin-6-yl)urea] ?
0.000

Quick one: Average IL-1β for O=C(NCCCc1ccccc1)Nc1ccc2ncccc2c1 [EN11-13] ?
0.011

====

# System: BMDCs
# assay.info: LDH release (lytic cell death, pyroptosis) from LPS-primed BMDCs
# Format: cell-based, mouse
# assay.conditions: Mus musculus, BMDC, section 1.4; 75 μM; read-out: Average LDH release (% of max.)
result.type: cytotoxicity at 75 µM (%)
Please give a number only; it is taken to be in %.

Recorded results for 3 molecules are shown here.
{"molecule": "Cc1c(F)cccc1CN1CCCC(Cc2nc(-c3ccc(NC(=O)Nc4ccccc4)cc3)no2)C1 (stereo not shown)", "test.system": "BMDCs", "cytotoxicity at 75 µM, %": 97.5}
{"molecule": "O=C(Nc1cccc(Cl)c1)Nc1ccc([N+](=O)[O-])cc1Cl", "test.system": "BMDCs", "cytotoxicity at 75 µM, %": 91.4}
{"molecule": "COc1ccc(NC(=O)Nc2ccc(-c3noc(CC4CCCN(Cc5cccc(F)c5C)C4)n3)cc2)cc1 (stereo not shown)", "test.system": "BMDCs", "cytotoxicity at 75 µM, %": 85.6}

Which cytotoxicity at 75 µM reading was recorded for the molecule O=C(Nc1ccccc1Cl)Nc1ccc([N+](=O)[O-])cc1Cl ?
75.8

====

# test.system: NLRP3 inflammasome (Mus musculus)
# Construct: endogenous in cells; host or cells: primary mouse bone marrow-derived dendritic cells (BMDCs), LPS-primed
# assay.info: IL-1β release from LPS-primed BMDCs (ELISA) as readout of NLRP3 inflammasome activation
# Type: cell-based
# assay.conditions: 100 μM
# maps each entry to its Average IL-1β
Give just the number in ng/mL; leave the unit off.

{"compound": "O=C(NCc1ccccc1)NCc1ccc2ncccc2c1 [EN11-11, 3-benzyl-1-[(quinolin-6-yl)methyl]urea]", "Average IL-1β [ng/mL]": 0.011}
{"compound": "O=C(Nc1ccc2ncccc2c1)NC1CCCCC1 [EN11-02, 1-cyclohexyl-3-(quin-olin-6-yl)urea]", "Average IL-1β [ng/mL]": 0.050}
{"compound": "O=C(NCCc1ccccc1)Nc1ccc2ncccc2c1 [EN11-07, 1-(2-phenylethyl)-3-(quinolin-6-yl)urea]", "Average IL-1β [ng/mL]": 0.053}

Look at this compound and give its reported Average IL-1β. O=C(NCCCc1ccccc1)Nc1ccc2ncccc2c1 [EN11-13]
0.297

Could you share which Average IL-1β value was measured for O=C(NCc1ccccc1)Nc1ccc2ncccc2c1 [EN11-16, 1-benzyl-3-(quinolin-6-yl)urea] ?
0.325

====

# cytotoxicity at 75 µM per record follows
# System: BMDCs
# assay.info: LDH release (lytic cell death, pyroptosis) from LPS-primed BMDCs
# Type: cell-based, mouse
# assay.conditions: Mus musculus, BMDC, section 1.4; single replicates; 75 μM; read-out: LDH release (% of max.)
Quick reminder: number only, in %, skip the unit.

Here's what some known entries look like.
{"compound": "COc1ccc(NC(=O)Nc2ccc(-c3noc(CC4CCCN(Cc5cccc(F)c5C)C4)n3)cc2)cc1 (stereo not shown)", "cytotoxicity at 75 µM, %": 85.1}
{"compound": "O=C(Nc1ccccc1Cl)Nc1ccc([N+](=O)[O-])cc1Cl", "cytotoxicity at 75 µM, %": 77.1}

Need cytotoxicity at 75 µM, item Cc1c(F)cccc1CN1CCCC(Cc2nc(-c3ccc(NC(=O)Nc4ccccc4)cc3)no2)C1 (stereo not shown)
100

Please report the recorded cytotoxicity at 75 µM for O=C(Nc1cccc(Cl)c1)Nc1ccc([N+](=O)[O-])cc1Cl .
91.5

====

# Test system: BMDCs
# assay.info: LDH release (lytic cell death, pyroptosis) from LPS-primed BMDCs
# Assay type: cell-based, mouse
# assay.conditions: Mus musculus, BMDC, single replicates; compound 50 μM; LPS-primed BMDCs; read-out: LDH release (% of max.)
# Procedure: This was tested in cell culture in several different in vitro assays classically used to investigate inflammasome activation. […] Lytic cell death was determined via LDH release. […] For classification of the activity of a given molecule, release of IL-1β was quantified as % of IL-1% of a respective control activator used for the experiment (highlighted in tables with bold letters). […]
// returns F unless cytotoxicity at 50 µM is strictly below 10%, in which case T

{"molecule": "Cc1ccc(NC(=O)Nc2ccccc2)cc1F", "class": "F"}
{"molecule": "CC(C)C(NC(=O)Nc1ccc(Cl)cc1)c1nc(-c2ccccc2)no1 (centres unmarked)", "class": "F"}
{"molecule": "O=C(Nc1cccc(S(=O)(=O)C2CCCC2)c1)N1CCCCC1c1nc(-c2ccccc2)no1 (centres unmarked)", "class": "F"}
{"molecule": "O=C(Nc1ccccc1)Nc1ccc(NC(=O)c2ccco2)cc1", "class": "T"}

Moving on to another molecule below.
# strict comparison: is reported cytotoxicity at 50 µM < 10%? input = COc1ccc(NC(=O)Nc2ccccc2)cc1Cl
T

====

# test.system: NLRP3 inflammasome (Mus musculus)
# Construct: endogenous in cells; host or cells: primary mouse bone marrow-derived dendritic cells (BMDCs), LPS-primed
# assay.info: IL-1β release from LPS-primed BMDCs (ELISA) as readout of NLRP3 inflammasome activation
# Format: cell-based
# assay.conditions: compound 50 μM; LPS-primed BMDCs
result.type: Average IL-1β (ng/mL)
Reply numerically in ng/mL, unit not repeated.

Record excerpt, results attached:
{"compound": "O=C(Nc1ccccc1)Nc1ccc(OC(F)(F)F)cc1 [L01.061]", "scale.unit": "ng/mL", "endpoint.value": 0.456}
{"compound": "COc1ccc(NC(=O)NCc2nc(Cc3ccccc3)no2)cc1 [L01.125]", "scale.unit": "ng/mL", "endpoint.value": 0.071}
{"compound": "O=C(NCc1nc(-c2ccsc2)no1)Nc1cc(Cl)cc(Cl)c1 [L01.115]", "scale.unit": "ng/mL", "endpoint.value": 0.114}
{"compound": "CN(C)Cc1ccc(NC(=O)Nc2ccccc2)cc1 [L01.121]", "scale.unit": "ng/mL", "endpoint.value": 0.065}

I'd like to know its Average IL-1β. The compound in question is O=C(Nc1ccccc1)Nc1ccc(C(=O)N2CCC2)cc1 [L01.008]
0.332

Need Average IL-1β, item O=C(Nc1ccccc1)Nc1cccc(OC(F)F)c1 [L01.120]
0.201

Consider the compound shown here: CC(C)c1ccc(NC(=O)Nc2ccccc2)cc1 [L01.047, 1-phenyl-3-[4-(propan-2-yl)phenyl]urea] What is its recorded Average IL-1β?
0.510

Entry under review: Cc1cccc(-c2noc(CN3C(=O)CN(c4ccccc4)C3=O)n2)c1 [L01.069] . Reported Average IL-1β?
0.139

Give the measured Average IL-1β of CNC(=O)NCc1cccc(NC(=O)Nc2ccccc2)c1 [L01.132] .
0.066

Can you look up the measured Average IL-1β of CC(=NO)c1ccc(NC(=O)Nc2ccccc2)cc1 [L01.095] for me?
0.122
